target: T1, angiogenin (human (produced in the Human Secretome …, UniProt P03950 25-147)); experiment: SPR Biacore T200, target on CM5 chip, ADAPT injected, 1:1 fit
T1 construct: also called bANG
T1 sequence (P03950 25-147 limits assumed): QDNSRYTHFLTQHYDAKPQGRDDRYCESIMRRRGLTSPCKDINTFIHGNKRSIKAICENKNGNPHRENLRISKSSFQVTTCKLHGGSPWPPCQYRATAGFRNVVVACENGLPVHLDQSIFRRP
pKd: −log10 of the molar value.
test_readout: pKd

1) LWAAKDDADWELWQYGVSDFYRALIWKAKTVEGVEALKLHILAALP (designed binder, also called ANG_6) [ADAPT variant ANG_06] ... 8.31
2) LHEAKDWADYELWSYGVSDFYRALIWKAKTVEGVEALKLHILAALP (designed binder) [ADAPT variant ANG_13] ... 10.55

Every entry's value here was drawn from patent US20230250160A1.
